Cited source: ChEMBL document CHEMBL1145632

Species: Homo sapiens
measurement description: Selectivity ratio of EC50 for human cloned CB1 receptor to EC50 for human cloned CB2 receptor
measured attribute: Ratio EC50
Numbers only.

Consider the reported Ratio EC50 for these molecules:
Cc1ccc(C(=O)NC(C(C)(C)C)C(C)(C)C)cc1S(=O)(=O)N1CCOCC1 = 44
CC1(C)[C@H]2CC[C@](C)(C2)[C@@H]1NC(=O)c1ccc(Br)c(S(=O)(=O)N2CCCC2)c1 = 51
Cc1ccc(C(=O)NCC23CC4CC(CC(C4)C2)C3)cc1S(=O)(=O)N1CCOCC1 = 8

With those in mind, consider the next molecule.
Task: Name the reported Ratio EC50 value associated with the molecule Cc1ccc(C(=O)NC2C3CC4CC(C3)CC2C4)cc1S(=O)(=O)N1CCOCC1 (centres undefined)
Result: 23

###

Please go through the items and note down their Ki.
tested target: Cannabinoid receptor 2 (Homo sapiens)
Sequence (P34972 whole entry): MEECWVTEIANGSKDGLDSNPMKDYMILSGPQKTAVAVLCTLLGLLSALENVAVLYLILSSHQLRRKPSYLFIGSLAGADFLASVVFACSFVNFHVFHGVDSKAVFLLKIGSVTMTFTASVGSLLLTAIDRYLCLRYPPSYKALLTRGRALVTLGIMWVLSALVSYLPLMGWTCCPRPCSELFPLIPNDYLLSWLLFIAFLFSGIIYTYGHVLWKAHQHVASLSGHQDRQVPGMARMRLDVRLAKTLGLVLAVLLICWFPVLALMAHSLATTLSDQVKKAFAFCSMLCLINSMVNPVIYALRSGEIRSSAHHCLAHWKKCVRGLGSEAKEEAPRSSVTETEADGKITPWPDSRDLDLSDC
Give bare numbers, in nM.

Known Ki results, listed for orientation:
CN(Cc1ccccc1)S(=O)(=O)c1cc(C(=O)N[C@@H]2C(C)(C)[C@H]3CC[C@]2(C)C3)ccc1Br = 11
CC1(C)[C@H]2CC[C@](C)(C2)[C@@H]1NC(=O)c1ccc(Br)c(S(=O)(=O)N2CCCC2)c1 = 9.4
CC1(C)[C@H]2CC[C@](C)(C2)[C@@H]1NC(=O)c1ccc(Br)c(S(=O)(=O)N2CCOCC2)c1 = 3.5
CC(C)(C)CNC(=O)c1ccc(Br)c(S(=O)(=O)N2CCCCC2)c1 = 100
Cc1ccc(C(=O)N[C@H]2CC3CC[C@@]2(C)C3(C)C)cc1S(=O)(=O)N1CCOCC1 = 8.1
Cc1ccc(C(=O)NC2C3CC4CC(C3)CC2C4)cc1S(=O)(=O)N1CCOCC1 (stereo not drawn) = 5.6
O=C(NCc1ccccc1)c1ccc(Br)c(S(=O)(=O)N2CCCCC2)c1 = 360
Cc1ccc(C(=O)N[C@H]2C(C)(C)[C@H]3CC[C@]2(C)C3)cc1S(=O)(=O)N1CCOCC1 = 48

Give me Ki for each of these compounds, listed below.
1. CC(C)CNC(=O)c1ccc(Br)c(S(=O)(=O)N(C)Cc2ccccc2)c1
2. COc1cccc(CNC(=O)c2ccc(Br)c(S(=O)(=O)N3CCCCC3)c2)c1
3. Cc1ccc(C(=O)NC(C)C(C)(C)C)cc1S(=O)(=O)N1CCOCC1 (stereo not drawn)
4. Cc1ccc(C(=O)N[C@@H]2C(C)(C)[C@H]3CC[C@]2(C)C3)cc1S(=O)(=O)N1CCOCC1
5. CN(Cc1ccccc1)S(=O)(=O)c1cc(C(=O)NCC(C)(C)C)ccc1Br

Result:
1: 340; 2: 200; 3: 180; 4: 3.9; 5: 430

###

tested target: Cannabinoid receptor 2 (Homo sapiens)
measurement description: Agonist activity at human cloned CB2 receptor by [35S]GTP-gamma-S binding assay
measured attribute: EC50 (nM)
Give bare numbers, in nM.

# per-item lookup of EC50; items listed below
1. CC1(C)[C@H]2CC[C@](C)(C2)[C@@H]1NC(=O)c1ccc(Br)c(S(=O)(=O)N2CCOCC2)c1
2. Cc1ccc(C(=O)NCC23CC4CC(CC(C4)C2)C3)cc1S(=O)(=O)N1CCOCC1
3. Cc1ccc(C(=O)N[C@H]2CC3CC[C@@]2(C)C3(C)C)cc1S(=O)(=O)N1CCOCC1

Result:
[8.8, 25, 14]

For every record below, what is its EC50?
1. Cc1ccc(C(=O)NC(C)C(C)(C)C)cc1S(=O)(=O)N1CCOCC1 (stereo not given)
2. Cc1ccc(C(=O)N[C@H]2C(C)(C)[C@H]3CC[C@]2(C)C3)cc1S(=O)(=O)N1CCOCC1

Result:
[125, 25]

###

Record form. Attribute: Ratio Ki. Fill in for each entry.
Species: Homo sapiens
measurement description: Selectivity ratio of Ki for human cloned CB1 receptor to Ki for human cloned CB2 receptor

These recorded examples may help you get a feel for the data.
CC(C)CNC(=O)c1ccc(Br)c(S(=O)(=O)N(C)Cc2ccccc2)c1 = > 3
CN(Cc1ccccc1)S(=O)(=O)c1cc(C(=O)N[C@@H]2C(C)(C)[C@H]3CC[C@]2(C)C3)ccc1Br = > 100

Turning now to a further record.
Task: Which value of Ratio Ki has been reported for CN(Cc1ccccc1)S(=O)(=O)c1cc(C(=O)NCC(C)(C)C)ccc1Br in the records?
Result: > 2

###

Give Ratio Ki for every item shown.
Species: Homo sapiens
measurement description: Selectivity ratio of Ki for human cloned CB1 receptor to Ki for human cloned CB2 receptor
Numbers only.

Cc1ccc(C(=O)NCC23CC4CC(CC(C4)C2)C3)cc1S(=O)(=O)N1CCOCC1 = 9

Please turn your attention to the following entry.
Task: Using the record for Cc1ccc(C(=O)NC(C(C)(C)C)C(C)(C)C)cc1S(=O)(=O)N1CCOCC1 , report its Ratio Ki.
Result: 9
